- assay-summary: clinical
- reported-conditions: human, plasma, sc, 120 mg

| molecule | readout-unit | concentration at 8 h |
| --- | --- | --- |
| O=C(c1ccccc1)c1ccc2n1CCC2C(=O)O (racemic) | ng/mL | 838 |

* * *

- assay-summary: clinical
- reported-conditions: human, plasma, sc, 120 mg

| compound | readout-unit | Vd/F |
| --- | --- | --- |
| O=C(c1ccccc1)c1ccc2n1CCC2C(=O)O (racemic) | L | 29.1 |

* * *

- assay-summary: clinical
- reported-conditions: human, plasma, sc, 120 mg
endpoint-name: half-life (h)

| molecule | endpoint-name | readout-unit | reported-measurement |
| --- | --- | --- | --- |
| O=C(c1ccccc1)c1ccc2n1CCC2C(=O)O (racemic) | half-life | h | 6.93 |
